TEST METHOD NOTES: HEK-293 Cancer Cell Toxicity qHTS against the NCATS CANVASS Library (AID 1347355); note: nearly all actives have a fitted effect of over 65% in size
CONDITION DESCRIPTION: HEK-293 viability, CellTiter-Glo luminescence, 72 h; series mostly up to 46.1 µM
Inconclusive results are not listed. The source made the active and inactive calls. Calls come from the whole dose curve; as a rule, active = well fitted cell-killing curve with a large enough effect; inconclusive = small, poorly fitted or top-dose-only effect; inactive = flat fitted curve, though single readings scatter.
Pick one and only one: active, inactive

{"COMPOUND": "C=C(C)C(=O)O[C@H]1C[C@H](C)[C@@H](OC(C)=O)CC[C@@]2(C)O[C@@H]2[C@H]2OC(=O)C(COC(C)=O)=C12", "CATEGORY": "active"}

*Q* Could you kindly confirm the outcome this assay logged for C[C@]12CC[C@]3(C1)[C@H](CC2=O)CC(OC(=O)c1ccccc1)[C@H]1[C@@](CO)(C(=O)O)CCC[C@@]13C (stereo not given in full) ?
*A* inactive

====

TEST SYSTEM: Rap guanine nucleotide exchange factor 4 (Homo sapiens)
TEST METHOD NOTES: Confirmatory qHTS for antagonist of cAMP-regulated guanine nucleotide exchange factor 4 (EPAC2) (AID 1645885); note: nearly all actives have a fitted effect of over 25% in size
CONDITION DESCRIPTION: EPAC2 Rap1B-BODIPY-GDP exchange fluorescence, biochemical; series mostly up to 114 µM
Inconclusive results are not listed. Activity calls are given as the source filed them. Calls follow the shape of the dose curve; as a rule, active = well fitted inhibition curve with a large enough effect; inconclusive = small, poorly fitted or top-dose-only effect; inactive = no such curve, though single readings can be large or run the other way.
I would appreciate it if you answered using one of these outcomes: active, inactive

Please review the entries below; each comes with its answer.
{"COMPOUND": "CCn1ccnc1C[C@@H]1COc2ccccc2O1", "CATEGORY": "active"}
{"COMPOUND": "CCCCCCc1cc2cc(-c3nnc(-c4cccc(Cl)c4)o3)c(=O)oc2cc1O", "CATEGORY": "active"}
{"COMPOUND": "CC(C)=CCCC1(C)C=Cc2c(O)c3c(c(CC=C(C)C)c2O1)OC12C(=CCCC1C(C)(C)O[C@@]2(C/C=C(\\C)C(=O)O)C(=O)O)C3=O (some centres undefined)", "CATEGORY": "inactive"}

Note: attention shifts to another entry.
*Q* Given `Cc1cc(C)cc(C(=O)N(C)[C@H](Cc2ccc(-c3ccccc3)cc2)C(=O)N[C@@H](Cc2c[nH]c3ccccc23)C(=O)O)c1` , state the outcome it received in this test.
*A* active

====

TEST METHOD NOTES: qHTS for Inhibitors of Plasmodium falciparum (7G8) proliferation (AID 504316); note: nearly all actives have a fitted effect of over 65% in size
CONDITION DESCRIPTION: P. falciparum 7G8 in erythrocytes, SYBR Green DNA, 72 h; series mostly up to 6.7 µM
Inconclusive results are not listed. The source made the active and inactive calls. Calls come from the whole dose curve; as a rule, active = well fitted inhibition curve with a large enough effect; inconclusive = small, poorly fitted or top-dose-only effect; inactive = flat fitted curve, though single readings scatter.
Bench note: report the call from T for active, F for inactive

{"MOLECULE": "CCN1C(=O)N[C@@H](c2cccc(C(F)(F)F)c2)[C@H](C(C)=O)[C@H]1C", "CATEGORY": "F"}

Next up:
*Q* So what was the verdict on `CCN1C(=O)[C@@H]2[C@H]3[C@H](O)[C@H](O)CC(=NO[C@@H]4O[C@H](COC(C)=O)[C@@H](OC(C)=O)[C@H](OC(C)=O)[C@@H]4OC(C)=O)[C@@H]3CC[C@H]2C1=O` in this test?
*A* F

====

TEST METHOD NOTES: qHTS for Inhibitors of Plasmodium falciparum (HB3) proliferation (AID 504318); note: nearly all actives have a fitted effect of over 60% in size
CONDITION DESCRIPTION: P. falciparum HB3 in erythrocytes, SYBR Green DNA, 72 h; series mostly up to 7.21 µM
Results filed as inconclusive are left out. Active and inactive are the calls of the source. Calls follow the shape of the dose curve; as a rule, active = well fitted inhibition curve with a large enough effect; inconclusive = small, poorly fitted or top-dose-only effect; inactive = flat fitted curve, though single readings scatter.
Mark one answer only. Choices: t for active, f for inactive

*Q* Test call for this compound, please: C=COCCN1C=C(C(=O)OCC)C(c2ccccc2)NC1=O (centres undefined)
*A* f

*Q* What classification did COC(=O)C1=C(C)N(Cc2ccccc2)C(=NCC2CC2)NC1c1ccc(Br)cc1 (centres undefined) end up with in this test?
*A* f

*Q* Which outcome was assigned to `CCCC[C@H]1CN2[C@H](c3ccc(Br)cc3)[C@H](C)CC[C@H]2C(=O)O1` in this test?
*A* f
